From: ChEMBL document CHEMBL4049388

For each entry below, report its inhibition of growth at 10 µM value.
Tested on: MCF7
ASSAY COMMENT: Cytotoxicity against human MCF7 cells assessed as growth inhibition at 10 uM after 72 hrs by SRB assay relative to control
Type: functional
TEST CONDITIONS: MCF7, 72 h, read-out: GI
Provide the reading as a plain figure in %.

The reported MCF7 inhibition of growth at 10 µM of "C[C@]12CC[C@H](O)CC1=CC[C@@H]1[C@@H]2CC[C@]2(C)C(c3nn(-c4ccccc4)cc3CNCc3ccccc3)=CC[C@@H]12" is 25.4

The reported MCF7 inhibition of growth at 10 µM of "COc1ccccc1NCc1cn(-c2ccccc2)nc1C1=CC[C@H]2[C@@H]3CC=C4C[C@@H](O)CC[C@]4(C)[C@H]3CC[C@]12C" is 18.1

The reported MCF7 inhibition of growth at 10 µM of "CC(C)NCc1cn(-c2ccccc2)nc1C1=CC[C@H]2[C@@H]3CC=C4C[C@@H](O)CC[C@]4(C)[C@H]3CC[C@]12C" is 92.1

The reported MCF7 inhibition of growth at 10 µM of C[C@]12CC[C@H]3[C@@H](CCC4C[C@@H](O)CC[C@@]43C)[C@@H]1CC[C@@H]2c1nn(-c2ccccc2)cc1CNCc1ccccc1 (stereo not given in full) is 44.4

The reported MCF7 inhibition of growth at 10 µM of CCCCNCc1cn(-c2ccccc2)nc1[C@H]1CC[C@H]2[C@@H]3CCC4C[C@@H](O)CC[C@]4(C)[C@H]3CC[C@]12C (stereo not given in full) is 21.9

The reported MCF7 inhibition of growth at 10 µM of "CCNCc1cn(-c2ccccc2)nc1C1=CC[C@H]2[C@@H]3CC=C4C[C@@H](O)CC[C@]4(C)[C@H]3CC[C@]12C" is 89.3

The reported MCF7 inhibition of growth at 10 µM of "CCCNCc1cn(-c2ccccc2)nc1C1=CC[C@H]2[C@@H]3CC=C4C[C@@H](O)CC[C@]4(C)[C@H]3CC[C@]12C" is 90.7

The reported MCF7 inhibition of growth at 10 µM of "CNCc1cn(-c2ccccc2)nc1C1=CC[C@H]2[C@@H]3CC=C4C[C@@H](O)CC[C@]4(C)[C@H]3CC[C@]12C" is 81.1

The reported MCF7 inhibition of growth at 10 µM of CCCNCc1cn(-c2ccccc2)nc1[C@H]1CC[C@H]2[C@@H]3CCC4C[C@@H](O)CC[C@]4(C)[C@H]3CC[C@]12C (stereo not given in full) is 88.6

The reported MCF7 inhibition of growth at 10 µM of "CCCCNCc1cn(-c2ccccc2)nc1C1=CC[C@H]2[C@@H]3CC=C4C[C@@H](O)CC[C@]4(C)[C@H]3CC[C@]12C" is 93.7

The reported MCF7 inhibition of growth at 10 µM of "C[C@]12CC[C@H](O)C[C@@H]1CC[C@@H]1[C@@H]2CC[C@]2(C)[C@@H](c3nn(-c4ccccc4)cc3CO)CC[C@@H]12" is 27.8

The reported MCF7 inhibition of growth at 10 µM of CCNCc1cn(-c2ccccc2)nc1[C@H]1CC[C@H]2[C@@H]3CCC4C[C@@H](O)CC[C@]4(C)[C@H]3CC[C@]12C (stereo not given in full) is 88.9

The reported MCF7 inhibition of growth at 10 µM of CC(C)NCc1cn(-c2ccccc2)nc1[C@H]1CC[C@H]2[C@@H]3CCC4C[C@@H](O)CC[C@]4(C)[C@H]3CC[C@]12C (stereo not given in full) is 70.8

The reported MCF7 inhibition of growth at 10 µM of C[C@]12CC[C@H]3[C@@H](CCC4C[C@@H](O)CC[C@@]43C)[C@@H]1CC[C@@H]2c1nn(-c2ccccc2)cc1CNc1ccccc1 (stereo not given in full) is 16.9

The reported MCF7 inhibition of growth at 10 µM of CNCc1cn(-c2ccccc2)nc1[C@H]1CC[C@H]2[C@@H]3CCC4C[C@@H](O)CC[C@]4(C)[C@H]3CC[C@]12C (stereo not given in full) is 45.9
